Test: Pharmacokinetic study of LGZGD components in plasma of normal and NAFLD rats after oral administration (UPLC-MS/MS)
Type: in vivo, Male Sprague–Dawley rats
Details: male, Sprague-Dawley, rat, plasma, po, 23 g/kg, Normal group, male SD rats, oral LGZGD extract 23 g/kg, plasma, mean ± SD, n = 6
assay.metric: AUC(0-t) (ng·h/mL)

I. O=C1C[C@@H](c2ccc(O[C@@H]3O[C@H](CO)[C@@H](O)[C@H](O)[C@H]3O)cc2)Oc2cc(O)ccc21 [Liquiritin, liquiritin]
II. O=C(O)/C=C/c1ccccc1 [Cinnamic acid, cinnamic acid]
Lower AUC(0-t): I or II ? Kindly give the label for the entry you pick.
II
(II: 10100 ng·h/mL, I: 115000 ng·h/mL)

a. CC1(C)[C@@H](O)CC[C@]2(C)[C@H]3C(=O)C=C4[C@@H]5C[C@@](C)(C(=O)O)CC[C@]5(C)CC[C@@]4(C)[C@]3(C)CC[C@@H]12 [Glycyrrhetinic acid, glycyrrhetinic acid]
b. C=C1CCC[C@]2(C)C[C@]3(O)OC(=O)C(C)=C3C[C@@H]12 [Atractylenolide III, atractylenolide III]
// compare measured AUC(0-t), left a , right b , return larger Kindly give the label for the entry you pick.
a
(a: 88200 ng·h/mL, b: 352 ng·h/mL)

The measured values listed here are drawn from paper PMC10192568.
